# measurement-target: T1, recombinant human PD-1 expressed with a C-terminal myc-myc-hexahistidine tag (human)
# T1 construct: monomeric; also called hPD-1-MMH; human PD-1-MMH
# T1 sequence (chain, as listed by the source limits assumed): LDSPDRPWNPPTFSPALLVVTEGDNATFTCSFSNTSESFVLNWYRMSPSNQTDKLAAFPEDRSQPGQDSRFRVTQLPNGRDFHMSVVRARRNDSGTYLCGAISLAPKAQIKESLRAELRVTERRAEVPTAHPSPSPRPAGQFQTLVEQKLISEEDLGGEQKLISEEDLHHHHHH
# test-name: SPR, mAb captured, 37C;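 note: rate constants from fitting sensorgrams to a 1:1 binding model, KD derived as kd divided by ka and half-life as ln2/(60·kd)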
Listed below: kon values for each entry.

{"columns": ["binder", "units-of-measure", "kon"],
 "data": [
  ["H1M7789N (antibody, mouse IgG1, V domains shown, Human variable regions, mouse IgG1 Fc) VH: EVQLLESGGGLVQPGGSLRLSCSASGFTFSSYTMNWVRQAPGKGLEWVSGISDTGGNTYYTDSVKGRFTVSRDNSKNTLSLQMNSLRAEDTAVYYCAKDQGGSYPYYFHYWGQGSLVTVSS VL: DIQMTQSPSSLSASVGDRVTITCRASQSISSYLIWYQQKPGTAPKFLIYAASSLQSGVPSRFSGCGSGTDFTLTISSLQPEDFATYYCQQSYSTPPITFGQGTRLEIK", "M⁻¹ s⁻¹", 45300],
  ["H2aM7791N (antibody, mouse IgG2a, V domains shown, Human variable regions, mouse IgG2a Fc; also called H2M7791N) VH: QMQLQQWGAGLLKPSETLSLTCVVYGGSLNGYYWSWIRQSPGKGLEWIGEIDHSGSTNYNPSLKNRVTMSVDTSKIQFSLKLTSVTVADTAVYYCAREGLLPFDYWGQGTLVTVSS VL: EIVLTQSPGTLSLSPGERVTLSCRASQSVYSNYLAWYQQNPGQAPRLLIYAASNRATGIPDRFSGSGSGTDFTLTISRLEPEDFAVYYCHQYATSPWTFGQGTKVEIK", "M⁻¹ s⁻¹", 41800],
  ["H4H7795N2 (antibody, human IgG4 S228P, kappa, V domains shown) VH: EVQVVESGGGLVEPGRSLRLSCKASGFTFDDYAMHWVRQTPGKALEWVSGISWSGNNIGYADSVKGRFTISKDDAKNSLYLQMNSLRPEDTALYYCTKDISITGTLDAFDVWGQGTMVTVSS VL: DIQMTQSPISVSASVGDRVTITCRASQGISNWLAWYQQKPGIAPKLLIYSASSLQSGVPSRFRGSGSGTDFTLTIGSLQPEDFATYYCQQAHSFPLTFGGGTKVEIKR", "M⁻¹ s⁻¹", 64100]
]}
